meta.source: patent US9140688B2

# System: elk sperm
# assay_name: Post thaw DNA fragmentation of elk sperm (Example 3)
# Type: cell-based
# experimental_conditions: elk, 24 h
experimental_readout: Post Thaw DNA fragmentation Elk, Pre-sort (%)
Respond numerically; units are % and should not be typed.

What value of measured Post Thaw DNA fragmentation Elk, Pre-sort is listed for COc1cc(S(=O)(=O)O)c(C)cc1N=Nc1c(O)ccc2cc(S(=O)(=O)O)ccc12 [Red 40, reference compound] ?
5.6

---

# System: elk sperm
# assay_name: Post thaw DNA fragmentation of elk sperm (Example 3)
# Assay type: cell-based
# experimental_conditions: elk, 0 h
experimental_readout: Post Thaw DNA fragmentation Elk, Pre-sort (%)
Report the figure in % without appending any unit label.

Fill in: Post Thaw DNA fragmentation Elk, Pre-sort of COc1cc(S(=O)(=O)O)c(C)cc1N=Nc1c(O)ccc2cc(S(=O)(=O)O)ccc12 [Red 40, reference compound] is ___
2.3

---

# Tested on: X- and Y-chromosome bearing bovine sperm stained with Hoechst 33342
# assay_name: Split quality: height of peak divided by height of valley (PV), flow cytometry of stained bovine sperm
# Assay type: cell-based
# experimental_conditions: Ex 5; dye 62.5 μM; Average of 12 and 14 μL series
experimental_readout: Height of Peak/Height of Valley
Output: the number by itself.

Quick check: Height of Peak/Height of Valley of `O=C([O-])C1=NN(c2ccc(S(=O)(=O)[O-])cc2)C(=O)/C1=N/Nc1ccc(S(=O)(=O)[O-])cc1.[Na+].[Na+].[Na+]` ?
1.65

Any idea what Height of Peak/Height of Valley was measured for `O=S(=O)([O-])c1ccc(N=Nc2c(O)ccc3cc(S(=O)(=O)[O-])ccc23)cc1.[Na+].[Na+]` ?
1.66

Look at this molecule and give its reported Height of Peak/Height of Valley. `O=S1(=O)OC(c2ccc(O)cc2)(c2ccc(O)cc2)c2ccccc21`
1.75

Would you mind telling me what Height of Peak/Height of Valley value was observed for COc1cc(S(=O)(=O)O)c(C)cc1N=Nc1c(O)ccc2cc(S(=O)(=O)O)ccc12 [Red 40, reference compound] ?
1.64

---

# Tested on: membrane compromised bovine sperm stained with Hoechst 33342
# assay_name: Dead quenching: dead gate intensity divided by live gate intensity, flow cytometry of stained bovine sperm
# Type: cell-based
# experimental_conditions: Ex 5; dye 25 μM; Hoechst 16 μL/2 mL
experimental_readout: Dead Intensity (dead gate intensity divided by live gate intensity) (%)
Field: numeric (%). Do not append units.

Query (molecule): O=C([O-])C1=NN(c2ccc(S(=O)(=O)[O-])cc2)C(=O)/C1=N/Nc1ccc(S(=O)(=O)[O-])cc1.[Na+].[Na+].[Na+] [Yellow 5] ; field requested: Dead Intensity (dead gate intensity divided by live gate intensity)
90

Can you look up the measured Dead Intensity (dead gate intensity divided by live gate intensity) of O=S1(=O)OC(c2ccc(O)cc2)(c2ccc(O)cc2)c2ccccc21 [Phenol Red, phenolsulfonphthalein] for me?
90

Quick check: Dead Intensity (dead gate intensity divided by live gate intensity) of COc1cc(S(=O)(=O)O)c(C)cc1N=Nc1c(O)ccc2cc(S(=O)(=O)O)ccc12 [Red 40, reference compound] ?
65

# Dead Intensity (dead gate intensity divided by live gate intensity) lookup, item O=S(=O)([O-])c1ccc(N=Nc2c(O)ccc3cc(S(=O)(=O)[O-])ccc23)cc1.[Na+].[Na+] [Yellow 6]
70
